The measurements presented in this section are drawn from patent US7169789B2.

Test system: Human glioma cells GL07
Assay: Antitumor effect on human glioma cells (GL07) transplanted into nude mice
Type: in vivo
Details: Mus musculus, Glioma cell, 216 h, GL07, oral, 20 mg/kg once a day for 9 days, read-out: TGIR, % (tumor growth inhibition rate)
recorded_endpoint: inhibition in vivo at 20 mg/kg (%)
Form entry: value (%) — number only.

| input_smiles | inhibition in vivo at 20 mg/kg [%] |
| --- | --- |
| CCCNC(=O)Nc1ccc(Oc2ccnc3cc(OCCCn4ccnc4)c(OC)cc23)cc1Cl | 34 |
| COc1cc2ncnc(Oc3ccc(NC(=O)N(C)c4ccccn4)c(Cl)c3)c2cc1OC | 31 |

## Input Which inhibition in vivo at 20 mg/kg reading was recorded for the molecule CCCNC(=O)Nc1ccc(Oc2ncnc3cc(OC)c(OCCCN4CCOCC4)cc23)cc1Cl ?
## Output 27

## Input // query: CCCNC(=O)Nc1ccc(Oc2ncnc3cc(OC)c(OC)cc23)cc1C
## Output 24

## Input Then CCCNC(=O)N(C(C)=O)c1ccc(Oc2ncnc3cc(OC)c(OC)cc23)cc1Cl ?
## Output 26

## Input Please give the result for CCCNC(=O)Nc1ccc(Oc2ncnc3cc(OC)c(OC)cc23)c(C)c1 too.
## Output 48

###

Biological target: human KDR (Homo sapiens, UniProt P35968)
Sequence (P35968 20-1356): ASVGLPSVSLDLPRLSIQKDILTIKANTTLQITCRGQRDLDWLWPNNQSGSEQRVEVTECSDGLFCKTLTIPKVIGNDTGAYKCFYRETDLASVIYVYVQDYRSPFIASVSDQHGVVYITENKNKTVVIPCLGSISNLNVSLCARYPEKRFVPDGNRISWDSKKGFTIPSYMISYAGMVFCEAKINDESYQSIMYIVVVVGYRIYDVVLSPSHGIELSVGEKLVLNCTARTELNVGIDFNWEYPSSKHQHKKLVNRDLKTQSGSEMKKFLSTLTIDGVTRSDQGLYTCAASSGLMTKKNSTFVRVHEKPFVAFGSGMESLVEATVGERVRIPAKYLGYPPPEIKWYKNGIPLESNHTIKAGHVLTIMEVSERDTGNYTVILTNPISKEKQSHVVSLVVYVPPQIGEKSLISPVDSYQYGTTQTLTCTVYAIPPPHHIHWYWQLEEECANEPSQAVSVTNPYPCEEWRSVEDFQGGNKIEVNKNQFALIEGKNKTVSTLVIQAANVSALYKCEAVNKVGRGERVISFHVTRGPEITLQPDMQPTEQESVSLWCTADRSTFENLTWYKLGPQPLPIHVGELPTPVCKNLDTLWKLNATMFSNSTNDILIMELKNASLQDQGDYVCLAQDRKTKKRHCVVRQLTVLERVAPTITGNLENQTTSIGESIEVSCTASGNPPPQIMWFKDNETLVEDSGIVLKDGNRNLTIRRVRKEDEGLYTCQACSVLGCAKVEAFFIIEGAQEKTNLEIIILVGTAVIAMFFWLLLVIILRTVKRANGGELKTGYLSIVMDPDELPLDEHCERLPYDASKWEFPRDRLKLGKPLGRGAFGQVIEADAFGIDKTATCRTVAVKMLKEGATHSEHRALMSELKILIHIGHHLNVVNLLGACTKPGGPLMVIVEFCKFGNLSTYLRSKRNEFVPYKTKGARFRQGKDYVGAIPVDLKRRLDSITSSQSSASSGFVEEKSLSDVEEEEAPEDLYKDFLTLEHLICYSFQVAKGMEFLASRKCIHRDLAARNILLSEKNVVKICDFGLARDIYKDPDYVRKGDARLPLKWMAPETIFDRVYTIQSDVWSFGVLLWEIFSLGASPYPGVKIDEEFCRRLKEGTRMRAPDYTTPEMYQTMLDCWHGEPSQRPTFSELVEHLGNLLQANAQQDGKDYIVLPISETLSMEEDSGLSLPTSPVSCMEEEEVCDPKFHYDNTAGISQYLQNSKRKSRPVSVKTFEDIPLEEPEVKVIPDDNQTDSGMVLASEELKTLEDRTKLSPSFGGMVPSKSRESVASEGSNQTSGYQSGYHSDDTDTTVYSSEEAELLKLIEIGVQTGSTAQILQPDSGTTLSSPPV
Assay: Inhibitory activity against KDR phosphorylation by ELISA
Details: NIH 3T3 cells transfected with human KDR, VEGF 100 ng/ml
Binary label based on IC50 with cut-off 3 nM: below gives class 1, not below gives class 0.

Solved entries:
| molecule | group |
| --- | --- |
| CCCNC(=O)Nc1ccc(Oc2ncnc3cc(OCCCSc4nnnn4C)c(OC)cc23)cc1Cl | class 0 |
| CCCNC(=O)Nc1ccc(Oc2ncnc3cc(OC)c(OC)cc23)cc1[N+](=O)[O-] | class 0 |
| CCCNC(=O)Nc1ccc(Oc2ccnc3cc(OCc4cccnc4)c(OC)cc23)cc1Cl | class 1 |
| CCN(CC)C(=O)Nc1ccc(Oc2ncnc3cc(OC)c(OC)cc23)cc1Cl | class 0 |

## Input In plain terms, does CCCNC(=O)Nc1ccc(Oc2ccnc3cc(OCCCCCn4ccnn4)c(OC)cc23)cc1Cl come in under 3 nM for IC50?
## Output class 1

## Input Next molecule up: CNC(=O)Nc1ccc(Oc2ncnc3cc(OCCCN4CCCCC4)c(OC)cc23)cc1Cl
## Output class 1

## Input Same again, this time with COc1cc2c(Oc3ccc(NC(=O)N(C)C)c(Cl)c3)ncnc2cc1OCCCCN1CCOCC1
## Output class 0

## Input Moving on to CCCCNC(=O)Nc1ccc(Oc2ncnc3cc(OC)c(OC)cc23)c(C)c1
## Output class 0

## Input Another molecule to check: CCC(C)NC(=O)Nc1ccc(Oc2ncnc3cc(OC)c(OC)cc23)cc1Cl (centres unmarked)
## Output class 0

## Input Next molecule: COc1cc2c(Oc3ccc(NC(=O)Nc4ccc(F)cc4F)c(Cl)c3)ncnc2cc1OCCCN(C)CCO
## Output class 1

###

Target: human KDR (Homo sapiens)
Experiment: Inhibitory activity against KDR phosphorylation by ELISA
Conditions: NIH 3T3 cells transfected with human KDR, VEGF 100 ng/ml
Description: Measurement of Inhibitory Activity Against KDR Phosphorylation by ELISA NIH 3T3 cells (Sawano A et al., Cell Growth & Differentation, 7, 213–221 (1996), “Flt-1 but not KDR/Flk-1 tyrosine kinase is a receptor for placenta growth factor, which is related to vascular endothelial growth factor”) prepared by transfection of human KDR were cultured in a DMEM medium containing 10% fetal calf serum (purchased from GIBCO BRL) within a 5% carbon dioxide incubator until 50 to 70% confluent. […]
Recorded measurements of pIC50, one per entry
# log scale: pIC50 equals minus log10 of the concentration in mol/L

The examples below pair each entry with its known result.
| compound | pIC50 |
| --- | --- |
| COc1cc2ncnc(Oc3ccc(NC(=O)Nc4ccc(F)cc4)cc3)c2cc1OC [Example 73] | 9.00 |
| CCCNC(=O)Nc1ccc(Oc2ncnc3cc(OC)c(OCCCN(C)CCO)cc23)cc1Cl [Example 140] | 7.44 |
| COc1ccccc1NC(=O)Nc1ccc(Oc2ncnc3cc(OC)c(OC)cc23)cc1 [Example 75] | 8.85 |

Next, consider the following compound.
## Input Given COc1cc2c(Oc3ccc(NC(=O)Nc4ccc(F)cc4F)c(Cl)c3)ccnc2cc1OCCN1CCN(C)CC1 [Example 166] , state its recorded pIC50.
## Output 8.66
